Cited source: paper PMC10709440

# test system: Drosophila OR49b (Drosophila melanogaster)
# Construct: expressed in transfected cells
# Sequence (Q9V6H2 1-375): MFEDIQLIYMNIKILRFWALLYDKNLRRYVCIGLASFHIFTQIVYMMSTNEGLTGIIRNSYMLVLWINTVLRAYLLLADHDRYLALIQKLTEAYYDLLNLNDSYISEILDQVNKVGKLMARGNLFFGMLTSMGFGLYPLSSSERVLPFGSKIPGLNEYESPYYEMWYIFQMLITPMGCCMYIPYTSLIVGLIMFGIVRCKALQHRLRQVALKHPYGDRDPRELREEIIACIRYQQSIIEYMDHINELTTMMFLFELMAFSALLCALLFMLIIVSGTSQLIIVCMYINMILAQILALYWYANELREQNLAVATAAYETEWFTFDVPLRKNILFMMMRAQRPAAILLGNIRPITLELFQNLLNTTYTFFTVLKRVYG
# Sequence (Q9VNB5 1-486 partner): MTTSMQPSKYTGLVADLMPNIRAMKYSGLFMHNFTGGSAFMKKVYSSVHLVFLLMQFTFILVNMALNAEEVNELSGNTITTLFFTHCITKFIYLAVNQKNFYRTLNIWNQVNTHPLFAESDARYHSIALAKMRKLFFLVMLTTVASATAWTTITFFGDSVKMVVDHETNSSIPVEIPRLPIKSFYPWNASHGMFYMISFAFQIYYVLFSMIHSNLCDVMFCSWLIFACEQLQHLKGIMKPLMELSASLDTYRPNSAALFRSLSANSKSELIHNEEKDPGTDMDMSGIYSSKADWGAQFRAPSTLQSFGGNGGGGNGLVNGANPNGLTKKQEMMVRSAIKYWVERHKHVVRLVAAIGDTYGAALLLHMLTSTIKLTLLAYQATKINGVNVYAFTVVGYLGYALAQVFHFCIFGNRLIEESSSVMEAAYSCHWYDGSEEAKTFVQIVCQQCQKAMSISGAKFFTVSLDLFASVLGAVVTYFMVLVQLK
# assay procedure: cell-based
# measurement context: OR49b cell line; odorant cc. 100 µM; mean of biological replicates
# Protocol: These VUAA1 normalized ∆F values were used to compare the different receptors and ligands. The concentration-dependent effect of the reference ligands on their cognate cell lines was examined in more detail. Twelve different ligand concentrations were measured on each cell line in an overall 0.01 μM to 100 μM concentration range with 5 repetitions with three technical replicates each time. […]
Form field: Average response (one value per entry).
Please respond with just the number, no unit label.

Answered cases to consult:
>>> observed_value("Cc1cccc(O)c1")
0.43
>>> observed_value("Cc1cccc(C)c1")
0.27
>>> observed_value("CC/C=C\\CCOC(C)=O [z3-hexenyl acetate]")
0.04
>>> observed_value("CCCC(O)CC (stereo not drawn)")
0.08

# lookup: Average response of CCCCC(C)O (stereo not drawn)
0.0161

Same question, CC1=CCC2C(C1)C2(C)C (stereo not drawn) this time
0.00

Lookup CCCC(=O)OCC [ethyl butyrate]
0.00

Now the compound CC1=CCC23CC1C(C)(C)C2CCC3C (stereo not drawn)
0.00

Cool, now C=C(C)[C@H]1CC=C(C)CC1 [limonene]
0.028

###

# test system: Drosophila OR10a (Drosophila melanogaster, UniProt Q9VYZ1)
# Construct: expressed in transfected cells
# Sequence (Q9VYZ1 whole entry, one chain of several): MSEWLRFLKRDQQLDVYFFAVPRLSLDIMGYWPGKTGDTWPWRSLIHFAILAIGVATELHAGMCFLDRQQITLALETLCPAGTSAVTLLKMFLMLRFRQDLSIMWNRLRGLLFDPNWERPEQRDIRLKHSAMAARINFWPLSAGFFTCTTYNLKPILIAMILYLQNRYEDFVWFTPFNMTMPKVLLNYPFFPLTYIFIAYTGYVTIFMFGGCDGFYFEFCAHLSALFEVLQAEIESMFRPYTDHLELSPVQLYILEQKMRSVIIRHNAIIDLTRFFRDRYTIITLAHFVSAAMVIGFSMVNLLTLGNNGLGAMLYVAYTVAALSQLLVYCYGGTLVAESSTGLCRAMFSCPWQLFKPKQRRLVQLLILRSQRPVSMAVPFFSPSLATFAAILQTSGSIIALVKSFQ
# assay procedure: Calcium ion fluorescence (GCaMP6) assay, OR10a stable HEK293 cell line
# Assay type: cell-based
# measurement context: HEK293, 1 μM VOC; 50 μM VUAA1 = 1; responses not exceeding 0.05 considered 0; read-out: OR10a Average response (VUAA1-normalized)
Would you mind labelling by activation at 1 µM? At or over 4% is TRUE, under is FALSE.

Worked examples follow.
>>> discrete_label("Cc1ccc(C)c(C)c1")
"TRUE"
>>> discrete_label("CC/C=C\\CCOC(C)=O [z3-hexenyl acetate]")
"TRUE"
>>> discrete_label("Cc1cccc(O)c1")
"TRUE"
>>> discrete_label("CC(=O)OCCC(C)C [isopentyl acetate]")
"TRUE"
>>> discrete_label("COC(=O)c1ccccc1O [methyl salicylate]")
"TRUE"

Answer whether activation at 1 µM of CC1=CCC23CC1C(C)(C)C2CCC3C (stereo not shown) is greater than or equal to 4%.
FALSE

Next up: Cc1ccc(O)cc1
FALSE

Check CCCCCC(C)O (stereo not shown) too.
FALSE

Would you kindly repeat that for CCCCOC(=O)CC [butyl propanoate] ?
FALSE
